tested on: Prunus; assay: Inhibition of almond beta-D-glucosidase at 1 mg/ml after 10 to 20 mins
Calls of active or inactive are those of the source. The rule behind the calls is not given here.
recordedMetric: inhibition

Solved entries (count: 5):
Return reported inhibition; argument: COC(=O)C(Cc1ccccc1)N1C[C@@H](CO)O[C@H](OC)[C@H](O)C1 (stereo partly specified)
inactive

Return reported inhibition; argument: COC(=O)C(Cc1ccccc1)N1C[C@@H](CO)O[C@H](OC)C1 (stereo partly specified)
inactive

Return reported inhibition; argument: COC(=O)CN1C[C@@H](CO)O[C@H](OC)[C@H](O)C1
inactive

Return reported inhibition; argument: CCCCN1C[C@@H](CO)O[C@H](OC)C1
inactive

Return reported inhibition; argument: CCCCN1C[C@@H](CO)O[C@H](OC)[C@H](O)C1
inactive

More entries:
Return reported inhibition; argument: CO[C@@H]1CN(C[C@H]2O[C@H](OC)[C@H](O)[C@@H](O)[C@@H]2O)C[C@@H](CO)O1
28%
